Sourced from paper PMC4336329

Molecular target: human ether-à-go-go-related gene (hERG) potassium channel (human, UniProt Q12809);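 further: peak tail current of the secondary pulse compared with the same well before compound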
Sequence (Q12809 whole entry, looked up): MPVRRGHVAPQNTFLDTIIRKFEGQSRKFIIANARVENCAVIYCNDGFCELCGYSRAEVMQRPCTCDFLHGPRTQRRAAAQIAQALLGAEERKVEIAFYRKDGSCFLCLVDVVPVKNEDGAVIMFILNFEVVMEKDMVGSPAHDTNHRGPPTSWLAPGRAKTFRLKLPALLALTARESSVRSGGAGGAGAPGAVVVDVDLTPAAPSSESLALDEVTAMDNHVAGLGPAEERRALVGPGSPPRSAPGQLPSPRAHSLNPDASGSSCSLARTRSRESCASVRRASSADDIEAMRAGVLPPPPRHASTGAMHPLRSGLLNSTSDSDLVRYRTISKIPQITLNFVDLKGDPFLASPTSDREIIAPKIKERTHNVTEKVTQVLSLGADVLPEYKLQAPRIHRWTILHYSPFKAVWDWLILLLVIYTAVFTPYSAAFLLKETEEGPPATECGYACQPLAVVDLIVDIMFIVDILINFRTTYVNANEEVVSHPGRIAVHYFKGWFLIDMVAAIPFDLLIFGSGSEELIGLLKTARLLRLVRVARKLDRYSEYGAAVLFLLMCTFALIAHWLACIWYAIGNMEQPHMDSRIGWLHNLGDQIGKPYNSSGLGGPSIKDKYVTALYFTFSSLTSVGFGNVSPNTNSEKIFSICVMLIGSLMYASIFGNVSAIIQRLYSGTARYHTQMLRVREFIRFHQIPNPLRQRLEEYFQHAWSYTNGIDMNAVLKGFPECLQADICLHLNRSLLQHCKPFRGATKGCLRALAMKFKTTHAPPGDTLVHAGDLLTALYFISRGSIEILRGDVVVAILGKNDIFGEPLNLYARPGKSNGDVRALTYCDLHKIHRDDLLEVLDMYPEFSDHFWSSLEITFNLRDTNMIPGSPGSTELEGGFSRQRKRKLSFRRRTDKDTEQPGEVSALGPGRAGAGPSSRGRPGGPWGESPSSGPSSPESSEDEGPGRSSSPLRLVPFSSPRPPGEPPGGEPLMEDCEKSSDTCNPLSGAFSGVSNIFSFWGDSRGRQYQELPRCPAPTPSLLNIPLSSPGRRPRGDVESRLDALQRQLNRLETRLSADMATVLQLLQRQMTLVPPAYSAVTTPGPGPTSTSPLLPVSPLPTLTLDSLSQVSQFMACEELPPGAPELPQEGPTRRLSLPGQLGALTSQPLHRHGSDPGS
Experiment: primary screen, population patch clamp on CHO cells stably expressing hERG; higher = less effect of the substance
The whole screen tested about 310,000 compounds, of which about 14,000 (4.5%) showed an effect of 50% or more. Effects have a minus sign here. The list comes from a sample in which strong results are over-represented; it also holds close analogues and randomly drawn compounds.
Recorded hERG current change (%, negative = inhibition) at 10uM by entry
Give the value, in units of %, as a plain number.

Guide cases for hERG current change (%, negative = inhibition) at 10uM, answers given:
>  <compound>
CCOc1ccc(/C=N/NC(=S)NC2CC3CC2C2C=CCC32)cc1 (centres unmarked)

>  <readout_units>
%

>  <readout_number>
6.33

$$$$
>  <compound>
CCn1cc(/C=C(/C#N)S(=O)(=O)c2ccccc2)cn1

>  <readout_units>
%

>  <readout_number>
-8.15

$$$$
>  <compound>
O=C(C1CCN(Cc2ccccc2)CC1)N1CCN(C/C=C/c2ccccc2)CC1.O=C(O)C(=O)O

>  <readout_units>
%

>  <readout_number>
-33.3

$$$$
>  <compound>
Cc1csc(Nc2ccc(Cl)cc2)[n+]1-c1ccc(Cl)cc1.[Br-]

>  <readout_units>
%

>  <readout_number>
14.9

$$$$

Exercise: I am curious: what hERG current change (%, negative = inhibition) at 10uM value has been reported for O=C(C1COc2ccccc2O1)N1CCN(c2nc3ccccc3s2)CC1 (centres unmarked) ?
Solution: -27.9

Exercise: Which hERG current change (%, negative = inhibition) at 10uM value is on record for Cc1ccc(S(=O)(=O)NN=C2CCC(C(C)(C)C)CC2)cc1[N+](=O)[O-] (centres unmarked) ?
Solution: -8.37

Exercise: Give the measured hERG current change (%, negative = inhibition) at 10uM of `COc1ccc(-n2c(Cc3cccn3C)nnc2SCC(=O)Nc2ccccc2)cc1` .
Solution: -19.5

Exercise: Endpoint output: hERG current change (%, negative = inhibition) at 10uM of `O=C(CSc1nc2cc(Cl)ccc2s1)N1CCN(C(=O)c2ccco2)CC1` . Value?
Solution: -71.6

Exercise: What measured hERG current change (%, negative = inhibition) at 10uM goes with `O=C(Cc1cccs1)Nc1ccccc1-c1nc2ccccc2[nH]1` ?
Solution: 19.7

Exercise: Bench note: what hERG current change (%, negative = inhibition) at 10uM did `C=C(C)c1cccc(C(C)(C)NC(=O)N2CCN(CC)CC2)c1` show?
Solution: 7.13

Exercise: Query (compound): `COc1ccc(/C=N/NC(=O)c2ccc3nc[nH]c3c2)c(OC)c1OC` ; field requested: hERG current change (%, negative = inhibition) at 10uM
Solution: 12.9
